So I've got a bunch of binders here, and I need their Kd values.
TARGET_SYSTEM: T1, Purified recombinant human CD26 (rhDipeptidyl peptidase IV), R&D Systems CAT #1180-SE (human, UniProt P27487 29-766)
T1 construct: Bought recombinant protein; also called hu-CD26; soluble human CD26
T1 sequence (P27487 29-766 limits assumed): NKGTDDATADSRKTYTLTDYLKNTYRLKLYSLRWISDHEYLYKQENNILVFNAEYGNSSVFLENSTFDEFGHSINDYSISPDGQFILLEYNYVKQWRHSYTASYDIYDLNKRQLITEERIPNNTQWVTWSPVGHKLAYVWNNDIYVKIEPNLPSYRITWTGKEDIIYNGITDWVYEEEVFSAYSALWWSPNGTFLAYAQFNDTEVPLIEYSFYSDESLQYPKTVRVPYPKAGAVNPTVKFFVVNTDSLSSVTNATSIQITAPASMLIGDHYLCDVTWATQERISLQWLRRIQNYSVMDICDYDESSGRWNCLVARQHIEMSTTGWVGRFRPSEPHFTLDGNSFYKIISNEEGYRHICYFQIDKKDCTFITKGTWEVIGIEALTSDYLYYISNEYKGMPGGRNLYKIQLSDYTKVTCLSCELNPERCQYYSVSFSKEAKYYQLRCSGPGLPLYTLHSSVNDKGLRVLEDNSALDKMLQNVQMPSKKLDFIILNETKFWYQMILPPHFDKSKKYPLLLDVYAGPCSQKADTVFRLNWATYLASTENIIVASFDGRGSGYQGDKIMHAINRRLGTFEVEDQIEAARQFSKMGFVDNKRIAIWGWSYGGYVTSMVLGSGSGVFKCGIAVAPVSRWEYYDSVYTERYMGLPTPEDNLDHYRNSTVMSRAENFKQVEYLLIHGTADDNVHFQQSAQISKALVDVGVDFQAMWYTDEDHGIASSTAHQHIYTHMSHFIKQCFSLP
ASSAY_TEXT: SPR (Biacore), Fab
Give a bare numeral; the unit nM is implied.

**Query** Form field: reported Kd of Fab X392 (X384 VH and X379 VL) (Fab, V domains shown, Fab made in E. coli) VH: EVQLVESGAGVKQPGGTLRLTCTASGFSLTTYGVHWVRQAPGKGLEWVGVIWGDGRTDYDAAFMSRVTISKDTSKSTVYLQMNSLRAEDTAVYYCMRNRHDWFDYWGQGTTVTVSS VL: DILLTQSPSSLSATPGERATITCRASQGIRNNLNWYQQKPGQAPRLLIYYSSNLQSGVPSRFSGSGSGTDFTLTISRLQPEDVAAYYCQQSIKLPFTFGSGTKVEIK
**Result** 0.24

**Query** Form field: reported Kd of Fab comprising X378 VL and CM03 VH (Fab, V domains shown, Fab made in E. coli) VH: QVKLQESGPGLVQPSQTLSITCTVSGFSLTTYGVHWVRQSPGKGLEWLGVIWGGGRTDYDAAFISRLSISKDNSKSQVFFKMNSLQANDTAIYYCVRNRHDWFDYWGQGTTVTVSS VL: DIEMTQSPSSLSASAGERVTISCRASQGIRNSLNWYQQKPGQAPRLLIYYSSNLQTGVPSRFSGSGSGTDFTLTISRLQAEDFATYYCQQSNKLPFTFGSGTKVEIK
**Result** 2.9

**Query** Form field: reported Kd of Fab comprising X377 VL and CM03 VH (Fab, V domains shown, Fab made in E. coli; also called X377 Fab) VH: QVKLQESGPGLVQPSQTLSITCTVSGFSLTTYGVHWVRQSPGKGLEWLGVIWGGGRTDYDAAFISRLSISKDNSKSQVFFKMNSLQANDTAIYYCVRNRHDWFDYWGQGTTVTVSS VL: EIELTQSPSSLSVSLGDRVTISCSASQDIRNNLNWYQQKPGQAPRLLIYYSSNLQTGVPARFSGSGSGTDFTLTISRLEPEDVAAYYCQQSIKLPFTFGSGTKVEIK
**Result** 1.9

**Query** Form field: reported Kd of Fab comprising X386 VH and CM03 VL (Fab, V domains shown, Fab made in E. coli) VH: EVQLVESGAGVEQPGGTLRLTCTASGFSLTTYGVHWVRQAPGKGLEWMGVIWGDGRTDYDAAFMSRVTISRDTSKSTAYLQLNSLRAEDTAVYYCVRNRHDWFDYWGQGTTVTVSS VL: DIQMTQSPSSLSASLGDRVTITCSASQGIRNSLNWYQQKPDGAVKLLIYYSSNLHSGVPSRFSGSGSGTDFSLTISNLEPEDIATYYCQQSIKLPFTFGSGTKLEIK
**Result** 2.7

**Query** Form field: reported Kd of Fab comprising X381 VL and CM03 VH (Fab, V domains shown, Fab made in E. coli) VH: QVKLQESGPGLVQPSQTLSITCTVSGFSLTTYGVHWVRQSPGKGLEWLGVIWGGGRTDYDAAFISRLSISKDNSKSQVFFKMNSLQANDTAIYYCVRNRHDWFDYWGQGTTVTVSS VL: EIELTQSPSSLSVSPGDRVTISCSASQGIRNSLNWYQQKPGQAPRLLIYYSSNLHTGVPARFSGSGSGTDFTLTISRLQAEDFATYYCQQSIKLPLTFGSGTKVEIK
**Result** 2.1
